measurement.notes: recombinant barcode read abundance after kanamycin selection (control-corrected) (log10(CPM+1)); higher = more efficient recombination; sequences stand for … in AGTGCAGAGAAAATCGGCCAGTTTTCTCTGCCTGCAGTCCGCATGCCGT…AGATTTATGCAGCGGACTGCCTTTCTCCCAAAGTGATAAACCGGACAGTATCATGGACCGGTTTTCCCGGTAATCCGTATTTGCAAGGTTGGTTTCACT; site = the 11-nt target
Recorded recombinant barcode read abundance (log10), one value per entry.
observable: recombinant barcode read abundance (log10)

                               sequence_data  measurement
 0  GTAGAGTCTTGGGTTCTAACCTGTTGCCT (site GCAGAGTCTAG)         1.94
 1  TTAGGTCCTTGGGTTCTAACCTGTTGCTT (site TTAAGTCCTAT)        0.357
 2  CTACCACCTTGGGTTCTAACCTGTTGCCT (site CTACCAGCTAG)       0.0722
 3  CACCAAACTTGGGTTCTAACCTGTTGCCT (site CACCAACCTAG)       0.0986
 4  GAGAGCACTTGGGTTCTAACCTGTTGCCT (site TAGAGCACTAG)        0.548
 5  CTGAGCCCTTGGGTTCTAACCTGTTGCCT (site CTGGGCCCTAG)        0.354
 6  GGTGACTCTTGGGTTCTAACCTGTTGCCT (site GGTGGATCTAG)        0.114
 7  GCCGCGACTTGGGTTCTAACCTGTTGCCT (site GCTGCGACTAG)        0.262
 8  GACCTGACTTGGGTTCTAACCTGTTGCCA (site GACCTGACTTG)        0.463
 9  TCGAAACCTTGGGTTCTAACCTGTTGCCT (site TCGAACCCTAG)       0.0112
10  TACCGTTCTTGGGTTCTAACCTGTTGCCT (site TAACGTTCTAG)            0
11  AAGCGTACTTGGGTTCTAACCTGTTGCCT (site AAGCGTCCTAG)        0.141
12  AGAGCTCCTTGGGTTCTAACCTGTTGCGG (site AGAGCTCCTCC)         1.28
13  GTTTGCCCTTGGGTTCTAACCTGTTGCTT (site GTTTGACCTAA)       0.0376
14  GGGCTCCCTTGGGTTCTAACCTGTTGCCG (site GGGCTCCCTCG)         1.92
15  TGGTACCCTTGGGTTCTAACCTGTTGCCT (site TGGTACCCTAG)         1.64
16  TCTAATTCTTGGGTTCTAACCTGTTGCAT (site TCTGACTCTAT)        0.186
17  CCATGAACTTGGGTTCTAACCTGTTGCCA (site CCATCAACTAG)        0.131
18  CGAGAACCTTGGGTTCTAACCTGTTGCCT (site CGAGAACCTAG)         1.67
19  CGTACGACTTGGGTTCTAACCTGTTGCAT (site CGTGCGACTAT)        0.236
20  GGGTCCTCTTGGGTTCTAACCTGTTGCCC (site GGGTCCTCTGG)         1.23

---

measurement.notes: recombinant barcode read abundance after kanamycin selection (control-corrected) (log10(CPM+1)); higher = more efficient recombination; sequences stand for … in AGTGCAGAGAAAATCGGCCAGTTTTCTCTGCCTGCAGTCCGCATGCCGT…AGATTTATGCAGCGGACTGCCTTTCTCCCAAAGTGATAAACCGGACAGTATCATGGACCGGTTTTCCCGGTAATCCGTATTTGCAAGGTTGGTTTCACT; site = the 11-nt target
observable: recombinant barcode read abundance (log10)

>>> print(df.to_string())
                              sequence_data  measurement
0  CCTTGCTCTTGGGTTCTAACCTGTTGCCT (site CCTTGCTCTAG)        0.317
1  ATCGCTTCTTGGGTTCTAACCTGTTGCCT (site AGCGCTTCTAG)        0.432
2  CTAGCCTCTTGGGTTCTAACCTGTTGCAT (site CTAGCCTCTAT)         2.38
3  TAATCGACTTGGGTTCTAACCTGTTGCCT (site TAATCGCCTAG)        0.643
4  ATATGTCCTTGGGTTCTAACCTGTTGCAA (site ATATGTCCTTT)        0.715
5  CTCTCGTCTTGGGTTCTAACCTGTTGCGT (site CTCTCGTCTAT)       0.0817
6  AATGCTTCTTGGGTTCTAACCTGTTGCTT (site AATGCTTCTAA)        0.398
7  CTAACTACTTGGGTTCTAACCTGTTGCCT (site CTAACTACTAG)         0.26
8  GTCGGTCCTTGGGTTCTAACCTGTTGCAC (site GTCGGTCCTGT)         2.49
9  CTGGGTTCTTGGGTTCTAACCTGTTGCCT (site CTGGGTTCTAG)         0.17

---

measurement.notes: recombinant UMI read abundance after kanamycin selection (control-corrected) (log10(CPM+1)); higher = more efficient recombination; extreme values may be limits of the assay; sequences stand for … in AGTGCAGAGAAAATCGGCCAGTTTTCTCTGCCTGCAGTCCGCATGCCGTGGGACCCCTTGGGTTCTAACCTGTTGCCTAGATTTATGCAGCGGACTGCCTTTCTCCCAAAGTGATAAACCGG…AGGTTGGTTTCACT; site = the 11-nt donor
Decide by recombinant UMI read abundance (log10): equal to or exceeding 0.08 means 1, less means 0.

                               sequence_data  class_assignment
 0  CAGTCGACATGGACCGGTTTTCCCGGTAATCCGTATTTGGG (site CAGTCAACTCC)                 0
 1  GCATCTACATGGACCGGTTTTCCCGGTAATCCGTATTTGTG (site CCATCTACTCA)                 1
 2  GACCGTTCATGGACCGGTTTTCCCGGTAATCCGTATTTGCT (site GACCGTTCTAG)                 1
 3  ATCCACGCATGGACCGGTTTTCCCGGTAATCCGTATTTGAG (site ATCCAAGCTCT)                 0
 4  ACAGTTGCATGGACCGGTTTTCCCGGTAATCCGTATTTGCA (site ACAGTTGCTTG)                 1
 5  CCAGGTGCATGGACCGGTTTTCCCGGTAATCCGTATTTGAT (site CCAGGAGCTAT)                 1
 6  CTCTACTCATGGACCGGTTTTCCCGGTAATCCGTATTTGCT (site CTCTACGCTAG)                 0
 7  GCCAGTCCATGGACCGGTTTTCCCGGTAATCCGTATTTGAT (site GCCAGTCCTAT)                 0
 8  AGATAGACATGGACCGGTTTTCCCGGTAATCCGTATTTGCC (site CGATAGACTGG)                 1
 9  AGGAAGACATGGACCGGTTTTCCCGGTAATCCGTATTTGCA (site AGGAAGACTCA)                 0
10  CTGGAAACATGGACCGGTTTTCCCGGTAATCCGTATTTGTA (site CTGGAAACTTT)                 1
11  CGATGACCATGGACCGGTTTTCCCGGTAATCCGTATTTGGG (site CGACGACCTCC)                 0
12  GTTGTTCCATGGACCGGTTTTCCCGGTAATCCGTATTTGGG (site GTTGTTCCTTC)                 0
13  ATGTGCCCATGGACCGGTTTTCCCGGTAATCCGTATTTGCG (site ATGTGCCCTCG)                 0
14  TGACTATCATGGACCGGTTTTCCCGGTAATCCGTATTTGTA (site TGACTATCTTA)                 1
15  GGGGCCCCATGGACCGGTTTTCCCGGTAATCCGTATTTGCA (site GGGGCCCCTTG)                 1
16  TCAGCATCATGGACCGGTTTTCCCGGTAATCCGTATTTGCA (site TCAGCATCTTG)                 1

---

measurement.notes: recombinant UMI read abundance after kanamycin selection (control-corrected) (log10(CPM+1)); higher = more efficient recombination; extreme values may be limits of the assay; sequences stand for … in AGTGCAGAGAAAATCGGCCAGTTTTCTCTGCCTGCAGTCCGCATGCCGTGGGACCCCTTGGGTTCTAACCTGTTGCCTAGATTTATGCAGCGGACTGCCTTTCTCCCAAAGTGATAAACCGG…AGGTTGGTTTCACT; site = the 11-nt donor
observable: recombinant UMI read abundance (log10)

                              sequence_data                              observable  measurement
0  GGTCAAACATGGACCGGTTTTCCCGGTAATCCGTATTTGTA (site GGTCCAACTTA)  recombinant UMI read abundance (log10)       0.0193
1  GTTGTTCCATGGACCGGTTTTCCCGGTAATCCGTATTTGCT (site GTTGTTCCTAG)  recombinant UMI read abundance (log10)            0
2  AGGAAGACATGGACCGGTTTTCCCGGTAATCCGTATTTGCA (site AGGTAGCCTTG)  recombinant UMI read abundance (log10)            0
3  ACTAGTGCATGGACCGGTTTTCCCGGTAATCCGTATTTGGT (site ACTAGTGCTAA)  recombinant UMI read abundance (log10)      0.00318
4  ACGTTGCCATGGACCGGTTTTCCCGGTAATCCGTATTTGTT (site ACGTTGCCTAA)  recombinant UMI read abundance (log10)        0.363
